Test system: 786-0 renal
Assay: NCI tumour cell line growth inhibition, 48 h
Form field: TGI (one value per entry).

// sample `CN[C@@H](C)[C@@H](N)c1ccccc1` , its TGI was > 100 µM

// sample `O=C1c2ccccc2C(=Cc2ccccc2)c2ccccc21` , its TGI was 6.94 µM

// sample `O=C(Nc1ccc(CN2CCOCC2)cc1)c1[nH]ncc1Nc1ncnc2sccc12` , its TGI was 7.96 µM

// sample `CC(C)(C#N)c1cc(F)cc(C(=O)Nc2cc(Nc3ncccc3-c3ncnc4nc[nH]c34)ccc2F)c1` , its TGI was > 10 µM

// sample `CCN(CC)CCCNc1nc(=O)[nH]c(C)c1C(=O)Nc1c2ccccc2nc2ccccc12` , its TGI was 32.6 µM

// sample `O=C(O)[C@@H]1CCC(=O)N1C(c1ccc2c(c1)OCO2)c1ccc2c(c1)OCO2` , its TGI was > 100 µM

// sample `C/C(=C\C1=C(Cl)C(=O)c2ccccc2C1=O)C(=O)O` , its TGI was 32.3 µM

// sample `COC(=O)Nc1nc2ccc(S(=O)(=O)n3nnc4ccccc43)cc2[nH]1` , its TGI was > 100 µM

// sample `COC(=O)[C@]12CSC[C@H]1C[C@H](c1ccccc1OC)N2` , its TGI was > 100 µM

// sample `O=C(O)c1ccc([N+]2=Cn3c(nc4ccccc43)C2)cc1` , its TGI was > 100 µM

// sample O=c1c2ccccc2n2n1CC(O)C2 (stereo not given) , its TGI was > 100 µM

// sample `C1=Nc2sc3c(c2C2=NCCN12)CCCC3` , its TGI was 34.1 µM

// sample O=C1C(C(c2ccccc2)N2CCOCC2)=C(O)C(c2ccccc2)N1c1ccccc1 (stereo not given) , its TGI was > 10 µM

// sample `COc1ccc2nc3cc(Cl)ccc3c(N3CCN(c4ccnc(N5CCOCC5)n4)CC3)c2c1` , its TGI was 34.3 µM
